Assayed system: human ACVR2A (human, UniProt P27037 20-135, limits assumed); further: test concentration or dose not given here
Sequence (P27037 20-135 limits assumed): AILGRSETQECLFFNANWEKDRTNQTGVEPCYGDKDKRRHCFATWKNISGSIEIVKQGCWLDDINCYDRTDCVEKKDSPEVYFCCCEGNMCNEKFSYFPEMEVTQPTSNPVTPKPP
Test name: ELISA
Method: The binding of ACVR2A-specific monoclonal antibodies to human ACVR2A, mouse ACVR2A, biotinylated goat anti-human kappa light chain (positive control) and human Fc (negative control) were determined by ELISA.
Measurement type: optical density (OD)
A number alone suffices; assume OD.

Please review the entries below; each comes with its answer.
{"columns": ["Binder", "Measurement type", "Readout value"],
 "data": [
  ["370_E07 (antibody, V domains shown, VH/VL only) VH: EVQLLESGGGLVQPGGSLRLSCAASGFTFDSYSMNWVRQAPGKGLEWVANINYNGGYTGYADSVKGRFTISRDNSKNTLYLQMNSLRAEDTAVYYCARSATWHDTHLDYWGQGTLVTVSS VL: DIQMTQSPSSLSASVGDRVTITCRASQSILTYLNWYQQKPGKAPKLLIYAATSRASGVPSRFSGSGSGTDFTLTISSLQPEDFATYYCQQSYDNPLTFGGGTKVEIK", "optical density", 3.44],
  ["368_G09 (antibody, V domains shown, VH/VL only) VH: EVQLLESGGGLVQPGGSLRLSCAASGFTFDSYGMHWVRQAPGKGLEWVANINYNGGYTSYADSVKGRFTISRDNSKNTLYLQMNSLRAEDTAVYYCARSATWHDTHLDYWGQGTLVTVSS VL: DIQMTQSPSSLSASVGDRVTITCRASQSIVSYLNWYQQKPGKAPKLVIYAATSRASGVPSRFSGSGSGTDFTLTISSLQPEDFATYYCQQSYDTPLTFGGGTKVEIK", "optical density", 2.44]
]}

Now examine the next entry.
// optical density lookup, key: 375_D05 (antibody, V domains shown, VH/VL only) VH: EVQLLESGGGLVQPGGSLRLSCAASGFTFSSYSMNWVRQAPGKGLEWVASINYNSGYTSYADSVKGRFTISRDNSKNTLYLQMNSLRAEDTAVYYCARSANWHDTHLDYWGQGTLVTVSS VL: DIQMTQSPSSLSASVGDRVTITCRASQSIVSYLNWYQQKPGKAPKLLIYAATSLHSGVPSRFSGSGSGTDFTLTISSLQPEDFATYYCQQSYDTPLTFGGGTKVEIK
3.46
